Value source: patent US20140294878A1

Molecular target: IgE of patient serum 1
Assay: ELISA inhibition, serum 1 pre-incubated with 1.25 µg/ml inhibitor; competitor: wt Mal d 1 adsorbed on wells
endpointLabel: % inhibition of Mal d 1-IgE binding
Field note: include the unit after the figure.

Answered examples (3):
{"binder": "mutant Bet v 1-Mal d 1 hybrid molecule (SEQ ID NO: 4) (protein) HHHHHHGVFNYETETTSVIPAARLFKAFILDGDNLFPKVAPQAISSVENIEGNGGPGTIAKISFPEGFPFKYVKDRVDEVDHTNFKYNYSVIEGGPIGDTLEKISNEIKIVATPDGGSILAINNKYHTAGDHEVKAEQIKASKEMGETLLRAVESYLLAHSDAYNEFGVYTFENEFTSEIPPSRLFKAFVLAADNLIPKIAPQAIKQAEILEGDGGPGTIKKITFGEGSQYGYVKHKIDSVDEAAYSYAYTLIEGDALTDTIEKVSYETKLVASGSGSIIKSISHYHTKGDVEIKEEHVKAGKEKAHGLFKLIESYLKGHPDAYN", "% inhibition of Mal d 1-IgE binding": "91%"}
{"binder": "wild-type Bet v 1-Mal d 1 hybrid molecule (SEQ ID NO: 3) (protein) HHHHHHGVFNYETETTSVIPAARLFKAFILDGDNLFPKVAPQAISSVENIEGNGGPGTIKKISFPEGFPFKYVKDRVDEVDHTNFKYNYSVIEGGPIGDTLEKISNEIKIVATPDGGSILKINNKYHTKGDHEVKAEQIKASKEMGETLLRAVESYLLAHSDAYNEFGVYTFENEFTSEIPPSRLFKAFVLDADNLIPKIAPQAIKQAEILEGDGGPGTIKKITFGEGSQYGYVKHKIDSVDEANYSYAYTLIEGDALTDTIEKVSYETKLVASGSGSIIKSISHYHTKGDVEIKEEHVKAGKEKAHGLFKLIESYLKGHPDAYN", "% inhibition of Mal d 1-IgE binding": "92%"}
{"binder": "mixture of the two mutagenised allergens (mut Bet v 1-SEQ ID NO:6 and mut Mal d 1-SEQ ID NO:2) (protein) chain 1: HHHHHHGVFNYETETTSVIPAARLFKAFILDGDNLFPKVAPQAISSVENIEGNGGPGTIAKISFPEGFPFKYVKDRVDEVDHTNFKYNYSVIEGGPIGDTLEKISNEIKIVATPDGGSILAINNKYHTAGDHEVKAEQIKASKEMGETLLRAVESYLLAHSDAYN chain 2: HHHHHHGVYTFENEFTSEIPPSRLFKAFVLAADNLIPKIAPQAIKQAEILEGDGGPGTIKKITFGEGSQYGYVKHKIDSVDEAAYSYAYTLIEGDALTDTIEKVSYETKLVASGSGSIIKSISHYHTKGDVEIKEEHVKAGKEKAHGLFKLIESYLKGHPDAYN", "% inhibition of Mal d 1-IgE binding": "76.7%"}

Would you kindly look at the next entry?
// query Could you tell me which % inhibition of Mal d 1-IgE binding is on file for mixture of the single wt allergens (wt Bet v 1 and wt Mal d 1) (protein) chain 1: HHHHHHGVFNYETETTSVIPAARLFKAFILDGDNLFPKVAPQAISSVENIEGNGGPGTIKKISFPEGFPFKYVKDRVDEVDHTNFKYNYSVIEGGPIGDTLEKISNEIKIVATPDGGSILKINNKYHTKGDHEVKAEQIKASKEMGETLLRAVESYLLAHSDAYN chain 2: HHHHHHGVYTFENEFTSEIPPSRLFKAFVLDADNLIPKIAPQAIKQAEILEGDGGPGTIKKITFGEGSQYGYVKHKIDSVDEANYSYAYTLIEGDALTDTIEKVSYETKLVASGSGSIIKSISHYHTKGDVEIKEEHVKAGKEKAHGLFKLIESYLKGHPDAYN ?
// result 95.5%
